Listed next: entries and their corresponding IL-8, cross-linked by F(ab')2 fragment [abs. corr.].
- measured.on: T1, CD27 expressed on the cell surface (HT1080_CD27 cells) (human, UniProt P26842 20-260)
- T1 sequence (looked up): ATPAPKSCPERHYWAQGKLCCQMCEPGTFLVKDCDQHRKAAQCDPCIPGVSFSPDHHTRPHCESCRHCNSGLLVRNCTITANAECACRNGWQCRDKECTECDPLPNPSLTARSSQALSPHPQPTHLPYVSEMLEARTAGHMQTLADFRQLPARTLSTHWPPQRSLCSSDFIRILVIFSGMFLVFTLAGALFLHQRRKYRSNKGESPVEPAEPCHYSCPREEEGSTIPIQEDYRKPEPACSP
- measurement.description: cell-based or functional assay; note: test concentration or dose not given here
Please reply with the bare figure in abs. corr. and do not write the unit itself.

Study these solved cases before continuing.
binder="P018.S.10.A.C03 (antibody, V domains shown, V regions on human Ig constant parts; also called AB27_172) VH: QSVEESGGRLVTPGTPLTLTCTVSGFSLSSYYMIWVRQAPGKGLEWIGIINTSGGAYYATWANGRFTISRTSTTVDLKITSPTTEDTATYFCARYLDNGFYCPDLWGQGTLVIVSS VL: DIVMTQTPSSVSEAVGGTVTIKCQASEDIYTLLAWYQQKPGQPPKLLIYKASILASGVSSRFKGGGSGADFTLTISDLESADAATYYCQSTYYGAAYIGAFGGGTEVVVK" unit_annotation="abs. corr." meas_value=1.56
binder="P018.S.02.A.G04 (antibody, V domains shown, V regions on human Ig constant parts; also called AB27_39) VH: QSLEESGGRLVTPGGSLTLTCTVSGIDLSSYAMGWVRQAPGKGLEYIGIIYTSNRTHYATWAKGRFTISKSSTTVDLKATSLTTEDTATYFCGRYGRGSGGYYYGMDLWGPGTLVTVSS VL: DIVMTQTPASVEAAVGGTVTIKCQASQSGDNYCSWYQQKPGQPPKLLIYQASKLTSGVPSRFRGSRSGTEYTLTISDLESADAATYYCQNYCAGSGVCLGIAFGGGTEVVVK" unit_annotation="abs. corr." meas_value=1.67
binder="P018.S.10.A.E04 (antibody, V domains shown, V regions on human Ig constant parts; also called AB27_177) VH: QSLEESGGDLVKPGASLTLTCTASGFSFSSSYWICWVRQAPGKGLEWVACISAPGSGSTFDASWAKGRFTISKTSSTTVTLQMTSLTAADTATYFCARFYAGGSGDYFDLWGPGTLVTVSS VL: QIVMTQTPSSTSEPVGGTVSIKCQASQNIGSYLAWYQQKPGQPPKVLIYTTSDLASGVPSRFKGSGSGTQFTLTISDLESDDAATYYCLGVYGYSSDDVAFGGGTEVVVK" unit_annotation="abs. corr." meas_value=2.29
binder="P018.S.03.A.F04 (antibody, V domains shown, V regions on human Ig constant parts; also called AB27_55) VH: QSVEESGGRLVTPGTPLTLTCTVSGFSLSSYAMGWVRQAPGKGLQWIGILYRNDAASYANWAKGRFTISKTSTTVDLTMPSLTTEDTATYFCVRGYVNDGYYNLWGQGTLVTVSS VL: AYDMTQTPASVEVAVGGTVTIKCQASESIGYRLAWYQQKPGQPPKLLIFDASDLASGVPSRFKGSGSGKHFTLTISGVQSADAATYYCQQDYSYSITDNCFGGGTEVVVS" unit_annotation="abs. corr." meas_value=1.59

# context switch: different binder, same IL-8, cross-linked by F(ab')2 fragment [abs. corr.]
Request the reported IL-8, cross-linked by F(ab')2 fragment [abs. corr.] associated with P018.S.07.A.C04 (antibody, V domains shown, V regions on human Ig constant parts; also called AB27_120) VH: QEQLVESGGGLVQPEGSLTLTCTASGFSFSSRFWICWVRQAPGKGLEWIACIYGGSTSATYDASWAKGRFTISKTSSTTVTLQMTSLTAADTATYFCTRLPTYDAYVFNLWGPGTLVTVSS VL: AIVMTQTPSSKSVPVGATATINCQASESVFSNNYLSWYQQKPGRSPKLLIYEASKLASGVPSRFSGSGSGTQFTLTISDVVSDDAATYYCGGYKSNNVDGYAFGGGTEVVVK
1.65

Each recorded value in this set is attributed to patent US20210253725A1.
